# methodNotes: Solid state (thermolytic) stability of TBR-760 salt forms, open container, UPLC peak purity and appearance
# Format: physicochemical
# conditions: UPLC peak purity, 40° C. at 75% RH, open container, 4 wk
Where a name gives a salt, the structure may show the parent alone.
experimentalReadout: Purity, T = 4 wk

Some compounds with known Purity, T = 4 wk results, for comparison:
{"columns": ["compound", "experimentalReadout", "observedResult"],
 "data": [
  ["CCCN1C[C@H](CSCC(=O)NCCCC[C@@H](NC(=O)CSC[C@@H]2C[C@@H]3c4cccc5[nH]cc(c45)C[C@H]3N(CCC)C2)C(=O)N[C@H]2CSSC[C@@H](C(=O)N[C@H](C(N)=O)[C@@H](C)O)NC(=O)[C@H](CC)NC(=O)[C@H](CCCCN)NC(=O)[C@@H](Cc3c[nH]c4ccccc34)NC(=O)[C@H](Cc3ccc(O)cc3)NC2=O)C[C@@H]2c3cccc4[nH]cc(c34)C[C@H]21 [TBR-760 acetate]", "Purity, T = 4 wk", 92.37],
  ["CCCN1C[C@H](CSCC(=O)NCCCC[C@@H](NC(=O)CSC[C@@H]2C[C@@H]3c4cccc5[nH]cc(c45)C[C@H]3N(CCC)C2)C(=O)N[C@H]2CSSC[C@@H](C(=O)N[C@H](C(N)=O)[C@@H](C)O)NC(=O)[C@H](CC)NC(=O)[C@H](CCCCN)NC(=O)[C@@H](Cc3c[nH]c4ccccc34)NC(=O)[C@H](Cc3ccc(O)cc3)NC2=O)C[C@@H]2c3cccc4[nH]cc(c34)C[C@H]21 [TBR-760 sulfate]", "Purity, T = 4 wk", 97.3],
  ["CCCN1C[C@H](CSCC(=O)NCCCC[C@@H](NC(=O)CSC[C@@H]2C[C@@H]3c4cccc5[nH]cc(c45)C[C@H]3N(CCC)C2)C(=O)N[C@H]2CSSC[C@@H](C(=O)N[C@H](C(N)=O)[C@@H](C)O)NC(=O)[C@H](CC)NC(=O)[C@H](CCCCN)NC(=O)[C@@H](Cc3c[nH]c4ccccc34)NC(=O)[C@H](Cc3ccc(O)cc3)NC2=O)C[C@@H]2c3cccc4[nH]cc(c34)C[C@H]21 [TBR-760 mesylate]", "Purity, T = 4 wk", 97.35]
]}

// next entry
Request: Need Purity, T = 4 wk, item CCCN1C[C@H](CSCC(=O)NCCCC[C@@H](NC(=O)CSC[C@@H]2C[C@@H]3c4cccc5[nH]cc(c45)C[C@H]3N(CCC)C2)C(=O)N[C@H]2CSSC[C@@H](C(=O)N[C@H](C(N)=O)[C@@H](C)O)NC(=O)[C@H](CC)NC(=O)[C@H](CCCCN)NC(=O)[C@@H](Cc3c[nH]c4ccccc34)NC(=O)[C@H](Cc3ccc(O)cc3)NC2=O)C[C@@H]2c3cccc4[nH]cc(c34)C[C@H]21 [TBR-760 tosylate]
Result: 96.93
